System: UO-31 renal
testSummary: NCI-60 one-dose screen, 48 h (100 = growth as untreated, 0 = no growth, -100 = all killed)
cond: 10 µM unless noted
Compounds without any hit were thinned out: in the full panel of roughly 83,000, 20% have a hit.
Quick rule for you: growth under 50% gets Fulfilled, anything else gets Not fulfilled.

{"molecule": "N#C/C(=C\\c1ccc(-c2ccc(Br)cc2)o1)c1nc(-c2cccs2)cs1", "cat": "Not fulfilled"}
{"molecule": "COc1ccc(-c2n[nH]nc2-c2cc3ccccc3s2)cc1O", "cat": "Fulfilled"}
{"molecule": "COc1ccc2[nH]cc(-c3nc(-c4c[nH]c5ncccc45)cs3)c2c1", "cat": "Fulfilled"}
{"molecule": "COc1cc2[nH]c(C(=O)c3cc(OC)c(OC)c(OC)c3)c(N)c2cc1C#CC1CC1", "cat": "Fulfilled"}
{"molecule": "CC1(C)C(=O)CC[C@]2(C)[C@H]3C(=O)C=C4[C@@H]5C[C@@](C)(C(=O)NCCNCCN)CC[C@]5(C)CC[C@@]4(C)[C@]3(C)CC[C@@H]12", "cat": "Not fulfilled"}

growth strictly < 50% for this molecule? NC1=NN=C2N(N)C(=O)c3cnn(-c4ccccc4)c3N2c2nc(-c3ccccc3)cc(-c3ccccc3)c21
Not fulfilled

growth strictly < 50% for this molecule? COc1cccc(-c2nn(-c3ccccc3)cc2-c2ccnc(NCCCNS(=O)(=O)c3ccc(C(F)(F)F)cc3)c2)c1
Fulfilled

growth strictly < 50% for this molecule? C=C(C)[C@@H]1CC[C@]2(C(=O)O)CC[C@]3(C)[C@H](CC[C@@H]4[C@@]5(C)C/C(=C/c6cccc(I)c6)C(=O)C(C)(C)[C@@H]5CC[C@]43C)[C@@H]12
Fulfilled

growth strictly < 50% for this molecule? Cc1cc(N(CCCNc2ccnc3cc(Cl)ccc23)Cc2ccco2)nc(N2CCOCC2)n1
Fulfilled

growth strictly < 50% for this molecule? COC(=O)[C@]12CC[C@@H](C)[C@H](C)[C@@H]1C1=CC[C@@H]3[C@@](C)(CC#N)C4=C(C[C@@]3(C)[C@]1(C)CC2)OC[C@]4(C)C=O
Fulfilled
